From: ChEMBL document CHEMBL1201862

System: LXFL 529
test_name: NCI tumour cell line growth inhibition, 48 h
Activity calls are given as the source filed them. Cut-off read from the data, not from the text of the source: active = GI50 up to about 1.1 µM and inactive = higher.
# Lookup of reported GI50 keyed by entry

Recorded GI50, per entry:
molecule	GI50
COc1cc2cc3c4cc(OC)c(OC)cc4cc[n+]3c(C)c2cc1OC.O=C([O-])CS(=O)(=O)O	10.8 µM (inactive)
Cc1c(C(=O)C/C(=N/NC(=O)c2ccccc2O)C(=O)Nc2ccccc2C(C)C)[n+]([O-])c2ccccc2[n+]1[O-]	25.1 µM (inactive)

# input for lookup
[Q] # return recorded GI50 for input `N#Cc1ccc(Oc2cccc(Oc3ccccc3)c2)cc1C#N`
[A] 61 µM (inactive)

###

System: HCT-15
test_name: NCI tumour cell line growth inhibition, 48 h
Quick reference: log10(GI50) of the listed items.
Kindly note that the scale is log10 and the underlying GI50 is in µM.

compound	reported_value
N#CC(C(=O)Nc1ccccc1)C1=C(Cl)C(=O)c2ccccc2C1=O (configuration not stated)	1.27
CC(C)=CCC[C@@H](C)C1=C(O)C(=O)C(C)=C(Nc2ccccc2)C1=O	0.88
C=C(CCC/C(C)=C/C=C/[C@@H](C)CCCc1ccoc1)C[C@@H]1OC(=O)[C@H](C)[C@@H]1O	1.00
O=c1oc2ccccc2c(-c2ccc(O)cc2)c1Oc1ccccc1	0.89
COc1ccccc1N1CCN(S(=O)(=O)c2ccc(Cl)cc2)C1=N	1.80
O=C(Nc1ccc(Cl)c(Cl)c1)C(=O)C(C(=O)c1ccccc1F)C1OC(=O)c2ccccc21 (configuration not stated)	1.14
CC(C)=NOC(=O)OC[C@H]1O[C@@H](n2cnc3c(N)ncnc32)C(O)C1O (some centres not stated)	1.86
O=C1/C(=C/C=C/c2ccccc2)CCC1CNc1ccccc1 (configuration not stated)	1.26

[Q] Quote log10(GI50) reported for COC(=O)[C@]1(c2cc3ccccc3n2S(=O)(=O)c2ccccc2)CC2CN(C(C)=O)C1CC2=O (some centres not stated) please.
[A] 0.39

[Q] State its log10(GI50): `O=C1NC(NCc2ccc(F)cc2)=N/C1=C\c1ccccc1Cl`
[A] 1.28

[Q] Please give the documented log10(GI50) of `COc1cc(C=O)c(-c2cc3c(cc2C=O)OCO3)c(OC)c1OC`
[A] 1.87

[Q] Tell me measured log10(GI50) for `COC(=O)N[C@@H]1C[C@H]2CC[C@]1(O[Si](C(C)C)(C(C)C)C(C)C)C(=O)C2` please.
[A] 1.25

###

Tested on: T47D
test_name: NCI tumour cell line growth inhibition, 48 h
The source made the active and inactive calls. Cut-off read from the data, not from the text of the source: active = GI50 up to about 1.1 µM and inactive = higher.
assay_metric: GI50

compound	GI50
COc1cc2oc(-c3ccc4c(c3)OCO4)c(OC)c(=O)c2c(O)c1OC	> 50 µM (inactive)

[Q] Note down GI50 recorded for `S=C(NN=C1NCCCN1)Nc1ccccc1`
[A] > 100 µM (inactive)

[Q] Specify reported GI50 for the compound shown: CC(=O)OCC1OC(Oc2cc(C)c(O)cc2C/C=C(\C)CC/C=C(\C)C[C@@H](C=C(C)C)OC(C)=O)C(O)C(OC(C)=O)C1OC(C)=O (stereo not given in full)
[A] 10.1 µM (inactive)

[Q] Give reported GI50 value for `O=c1c2ccccc2[nH]c2c(Cl)cc(Cl)c(NC3CCCCC3)c12`
[A] 31.1 µM (inactive)

[Q] Supply GI50 value. Item: CCc1ncc(C(C)(O)c2ccccc2)n1Cc1ccccc1 (stereo not given)
[A] 73.6 µM (inactive)

[Q] Consider the compound OC1(c2ccc(Cl)cc2)c2ccc3ccccc3c2C2=N[C@H]3CCCC[C@@H]3N21 (stereo not given in full) and give its recorded GI50.
[A] 3.13 µM (inactive)

[Q] Look up GI50 of `COC(=O)CCn1cnc2c(SC)ncnc21` and report it.
[A] > 100 µM (inactive)

[Q] Please list GI50 recorded for the compound `CC(C)(C)OC(=O)N/C=C1\C(=O)Oc2ccccc2C1=O`
[A] 24 µM (inactive)

[Q] Complete the entry with GI50 for `COC(=O)N1C[C@@]2(C=CC3(CC2)OCCO3)c2ccccc21`
[A] > 100 µM (inactive)

[Q] # return recorded GI50 for entry `FC(F)(Sc1nc2ccccc2[nH]1)c1nc2ccccc2o1`
[A] > 100 µM (inactive)

###

GI50 values for the compounds below.
Tested on: U-251
test_name: NCI tumour cell line growth inhibition, 48 h
Calls of active or inactive are those of the source. No stated cut-off is given here; in the data, active = GI50 up to about 1.1 µM and inactive = higher.

A selection of reference data follows.
compound	reported_value
CC1(C)CC(c2c[nH]c3ccccc23)=CC2=Nc3ccccc3C21O (centres undefined)	33.2 µM (inactive)
Cc1ccc2c(O)cc(-c3cc4ccccc4s3)nc2n1	> 100 µM (inactive)
Nc1nc2c(ncn2CC(CO)CC(c2ccccc2)P(=O)(O)O)c(=O)[nH]1 (centres undefined)	> 100 µM (inactive)

Note: attention shifts to another entry.
[Q] Complete the entry with GI50 for COC(=O)N[C@H](C(=O)NC(OCc1ccccc1)C1COC(C)(C)O1)C(C)O[Si](C)(C)C(C)(C)C (some centres undefined)
[A] 88.7 µM (inactive)

###

# GI50 values compiled below
System: OVCAR-8
test_name: NCI tumour cell line growth inhibition, 48 h
Activity calls are given as the source filed them. Rule as the data show it: active = GI50 up to about 1.1 µM and inactive = higher.

compound	assay_metric	reported_value
Cn1c(-c2ccccc2)cc(-c2ccc3c(c2)OCO3)c1-c1cccs1	GI50	> 100 µM (inactive)
ON(Cc1ccccc1)C(=S)c1ccccc1	GI50	3.46 µM (inactive)
CC1C(=O)OCC2=CCN3CCC(OC(=O)C(C)C1(C)O)C23 (stereo unspecified)	GI50	> 100 µM (inactive)
CCOC(=O)Cn1nnc2ccc(Nc3nc4ccccc4nc3-c3ccccc3)cc21	GI50	> 100 µM (inactive)
N=C(N)NS(=O)(=O)c1ccc(NNc2c3ccccc3nc3ccccc23)cc1	GI50	6.38 µM (inactive)

Turning now to a further record.
[Q] Give GI50 for the following compound: Brc1cc(CCOC2CCCCO2)c(-c2sccc2CCOC2CCCCO2)s1 (stereo unspecified)
[A] 45.5 µM (inactive)

###

Reported GI50 values are given for each entry in this list.
Test system: SF-295
test_name: NCI tumour cell line growth inhibition, 48 h
Calls of active or inactive are those of the source. Rule as the data show it: active = GI50 up to about 1.1 µM and inactive = higher.

// known answers, use as guide
compound	GI50
OC1(c2ccc(Cl)cc2)c2ccc3ccccc3c2C2=N[C@H]3CCCC[C@@H]3N21 (some centres undefined)	3.64 µM (inactive)
CC1=CC=C2C(C)(C)CC[C@@H]3OC(=O)[C@H]1[C@]23C	> 100 µM (inactive)
CC(=O)/C(=N\O)C(=O)Nc1ccc(Cl)cc1Cl	> 100 µM (inactive)

[Q] # return recorded GI50 for input `C=CCCON(C(=O)OC(C)(C)C)c1ccccc1`
[A] > 100 µM (inactive)

[Q] Read off the recorded GI50 for `COc1cc([N+](=O)[O-])c(S(=O)(=O)O)cc1NS(=O)(=O)c1ccc(C)cc1`
[A] > 100 µM (inactive)

###

System: KM12
test_name: NCI tumour cell line growth inhibition, 48 h
Activity calls are given as the source filed them. No stated cut-off is given here; in the data, active = GI50 up to about 1.1 µM and inactive = higher.
assay_metric: GI50

Field: example entries. Status: answers known.
compound	GI50
COc1ccccc1NC1=NCC(C)S1 (stereo not given)	> 100 µM (inactive)
N=C(N)NS(=O)(=O)c1ccc(NNc2c3ccccc3nc3ccccc23)cc1	11.2 µM (inactive)
CC(=O)O[C@@H]1C[C@@]23C[C@@]24CC[C@H](OC2OCC(O)C(O)C2O)C(C)(C)[C@@H]4CC=C3[C@]2(C)C[C@@H]3OC4(C[C@@H](C)[C@@H]3[C@@]12C)OC(O)[C@@]1(C)O[C@@H]41 (stereo not given in full)	33.7 µM (inactive)
CCOC(=O)C(=O)N/N=C1\C(=O)Nc2ccccc21	> 100 µM (inactive)

Kindly review the next compound as well.
[Q] Output GI50 of `COc1cc2cnc3c4cc(OC(C)C)c(OC)cc4ccc3c2cc1OC`
[A] > 100 µM (inactive)

###

Items are presented alongside their recorded GI50.
Tested on: ACHN
test_name: NCI tumour cell line growth inhibition, 48 h
Active and inactive are the calls of the source. Cut-off read from the data, not from the text of the source: active = GI50 up to about 1.1 µM and inactive = higher.

Here's what some known entries look like.
compound	GI50
CC#CCCCC1(C)CCCNC1=S (configuration not stated)	> 10 µM (inactive)
CCOC(=O)c1[nH]c(COC(C)=O)c(CCCOC(C)=O)c1CCCOC(C)=O	> 100 µM (inactive)
Cc1nc2ccccc2nc1N1CCCC1	> 100 µM (inactive)
CC1(/C=C/CCSc2ccccc2)CC(=O)C2CC1C2(C)C (configuration not stated)	19 µM (inactive)
N#CC1CC2(C1)OCCS2 (configuration not stated)	> 100 µM (inactive)
COc1cc2nc(Cl)nc(NS(=O)(=O)c3cc4ccccc4s3)c2cc1OC	30.8 µM (inactive)

Turning now to a further compound:
[Q] Let me know recorded GI50 for `CCOC(=O)c1cn(CC)c2ccc3c(c2c1=O)S(=O)(=O)C=C3` , thanks.
[A] > 100 µM (inactive)
